- assayed-target: human plasma protein factor Xa (Homo sapiens, UniProt P00742)
- Construct: measure proteolytic activity of the enzyme (factor Xa) by following cleavage of paranitroanilide substrate
- Sequence (P00742 235-488 limits assumed): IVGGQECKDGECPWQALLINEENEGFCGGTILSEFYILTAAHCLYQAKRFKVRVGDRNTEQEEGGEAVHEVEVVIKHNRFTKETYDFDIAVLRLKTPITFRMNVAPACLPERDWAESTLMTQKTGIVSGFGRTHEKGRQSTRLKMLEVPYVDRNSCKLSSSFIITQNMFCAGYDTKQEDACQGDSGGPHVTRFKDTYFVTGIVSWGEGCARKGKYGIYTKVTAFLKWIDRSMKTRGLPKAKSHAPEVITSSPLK
- Sequence (P00742 41-179 partner limits assumed): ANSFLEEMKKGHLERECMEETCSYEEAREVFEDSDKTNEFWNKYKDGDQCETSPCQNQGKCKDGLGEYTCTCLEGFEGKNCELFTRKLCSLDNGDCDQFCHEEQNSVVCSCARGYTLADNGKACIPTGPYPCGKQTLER
- method-summary: Factor Xa IC50 determination (cleavage of paranitroanilide substrate S-2765)
- conditions-used: fXa 1 nM, S2765 100 μM, Tris buffered saline pH 7.4, room temperature
measured-quantity: IC50

Some entries whose results are on file:
>  <compound>
N=C(c1ccc(NC(=O)[C@@H](NC(=S)Nc2ccc(Br)cc2C(F)(F)F)c2ccccc2)cc1)N1CCCC1

>  <IC50>
≥ 500 nM

$$$$
>  <compound>
CCOC(=O)C1CCN(C(=N)c2ccc(NC(=O)C(NC(=S)Nc3ccc(Br)cc3)c3ccccc3)cc2)CC1 (stereo not shown)

>  <IC50>
≥ 500 nM

$$$$
>  <compound>
O=C(Nc1ccc(-n2ccccc2=O)cc1)[C@H](NC(=S)Nc1ccc(Cl)cc1)c1ccccc1

>  <IC50>
≤ 100 nM

$$$$

Q) Could you tell me which IC50 is on file for `N=C(c1ccc(NC(=O)[C@@H](NC(=S)Nc2ccc(Br)cc2F)c2ccccc2)cc1)N1CCCC1` ?
A) ≥ 500 nM

###

- assayed-target: human plasma protein factor Xa (Homo sapiens)
- Construct: measure proteolytic activity of the enzyme (factor Xa) by following cleavage of paranitroanilide substrate
- method-summary: Factor Xa IC50 determination (cleavage of paranitroanilide substrate S-2765)
- conditions-used: fXa 1 nM, S2765 100 μM, Tris buffered saline pH 7.4, room temperature
measured-quantity: IC50

Some entries whose results are on file:
>  <molecule>
NS(=O)(=O)c1ccccc1-c1ccc(NC(=O)[C@H](NC(=S)Nc2ccc(Br)cn2)c2ccccc2)cc1 [Example 31]

>  <IC50>
100 to 500 nM

$$$$
>  <molecule>
O=C(Nc1ccc(-n2ccccc2=O)cc1F)[C@H](NC(=S)Nc1ccc(Cl)cc1)c1ccccc1 [Example 36]

>  <IC50>
≤ 100 nM

$$$$
>  <molecule>
N=C(c1ccc(NC(=O)C(NC(=S)Nc2ccc(Br)cc2)c2ccccc2)cc1)N1CCCC1 (stereo not shown) [Example 5]

>  <IC50>
≤ 100 nM

$$$$

Now look at this entry.
Q) Could you tell me which IC50 is on file for NS(=O)(=O)c1ccccc1-c1ccc(NC(=O)C(NC(=S)Nc2ccc(Cl)cc2)c2ccccc2)cc1 (stereo in doubt) [Example 32] ?
A) 100 to 500 nM

###

- assayed-target: human plasma protein factor Xa (Homo sapiens)
- Construct: measure proteolytic activity of the enzyme (factor Xa) by following cleavage of paranitroanilide substrate
- method-summary: Factor Xa IC50 determination (cleavage of paranitroanilide substrate S-2765)
- conditions-used: fXa 1 nM, S2765 100 μM, Tris buffered saline pH 7.4, room temperature
measured-quantity: IC50

Some entries whose results are on file:
>  <compound>
CN1CCC(N2CCN(C(=O)[C@H](NC(=S)Nc3ccc(Cl)cc3)c3ccccc3)CC2)CC1

>  <assayed-target>
human plasma protein factor Xa (Homo sapiens)

>  <data-value>
≤ 0.1 µM

$$$$
>  <compound>
N=C(c1ccc(NC(=O)[C@@H](NC(=S)Nc2ccc(Br)cc2OC(F)(F)F)c2ccccc2)cc1)N1CCCC1

>  <assayed-target>
human plasma protein factor Xa (Homo sapiens)

>  <data-value>
≥ 0.5 µM

$$$$
>  <compound>
NS(=O)(=O)c1ccccc1-c1ccc(NC(=O)[C@@H](NC(=S)Nc2ccc(Br)cn2)c2ccccc2)cc1

>  <assayed-target>
human plasma protein factor Xa (Homo sapiens)

>  <data-value>
≤ 0.1 µM

$$$$

Q) Could you tell me which IC50 is on file for NS(=O)(=O)c1ccccc1-c1ccc(NC(=O)C(NC(=S)Nc2ccc(Cl)cc2)c2ccccc2)cc1 (stereo in doubt) [Example 33] ?
A) ≤ 0.1 µM

###

- assayed-target: human plasma protein factor Xa (Homo sapiens, UniProt P00742)
- Construct: measure proteolytic activity of the enzyme (factor Xa) by following cleavage of paranitroanilide substrate
- method-summary: Factor Xa IC50 determination (cleavage of paranitroanilide substrate S-2765)
- conditions-used: fXa 1 nM, S2765 100 μM, Tris buffered saline pH 7.4, room temperature
measured-quantity: IC50

Some entries whose results are on file:
>  <compound>
N=C(c1ccc(NC(=O)[C@@H](NC(=S)Nc2c(Br)cc(Br)cc2Br)c2ccccc2)cc1)N1CCCC1

>  <IC50>
≥ 500 nM

$$$$
>  <compound>
CN1CCC(C2CCN(C(=O)[C@H](NC(=S)Nc3ccc(Cl)cc3)c3ccccc3)CC2)CC1

>  <IC50>
≥ 500 nM

$$$$
>  <compound>
N=C(c1ccc(NC(=O)[C@@H](NC(=S)Nc2ccc(Br)cc2)c2ccccc2)cc1)N1CCCCC1

>  <IC50>
100 to 500 nM

$$$$
>  <compound>
CN1CCC(N2CCN(C(=O)[C@@H](NC(=S)Nc3ccc(Cl)cc3)c3ccccc3)CC2)CC1

>  <IC50>
≤ 100 nM

$$$$

Now look at this entry.
Q) Could you tell me which IC50 is on file for O=C(Nc1ccc(N2CCOCC2=O)cc1)C(NC(=S)Nc1ccc(Cl)cc1)c1ccccc1 (centres unmarked) ?
A) ≤ 100 nM

###

- assayed-target: human plasma protein factor Xa (Homo sapiens)
- Construct: measure proteolytic activity of the enzyme (factor Xa) by following cleavage of paranitroanilide substrate; purchased Haematologic Technologies (Essex Junction, Vt.); host or cells: human plasma
- method-summary: Factor Xa IC50 determination (cleavage of paranitroanilide substrate S-2765)
- Type: biochemical
- conditions-used: fXa 1 nM, S2765 100 μM, Tris buffered saline pH 7.4, room temperature
pIC50: −log10 of the molar value.
Listing: pIC50 of selected compounds

Some entries whose results are on file:
>  <compound>
CN1CCN=C1c1ccc(NC(=O)C(NC(=S)Nc2ccc(Br)cc2)c2ccccc2)cc1 (centres unmarked)

>  <pIC50>
≥ 7.00

$$$$
>  <compound>
Cc1cc2cc(NC(=S)NCC(=O)Nc3ccc(C(=N)N(C)C)cc3)ccc2o1

>  <pIC50>
≤ 6.30

$$$$
>  <compound>
N=C(c1ccc(NC(=O)[C@@H](NC(=S)Nc2ccc(Br)cc2)c2ccccc2)cc1)N1CCCCCC1

>  <pIC50>
≥ 7.00

$$$$

Q) Form: Entry = `Cc1cc(Br)ccc1NC(=S)N[C@H](C(=O)Nc1ccc(C(=N)N2CCCC2)cc1)c1ccccc1` | System = human plasma protein factor Xa (Homo sapiens) | pIC50 = ____
A) ≤ 6.30

Q) Form: Entry = `Cc1cc2cc(NC(=S)N[C@@H](CC(C)C)C(=O)Nc3ccc(C(=N)N(C)C)cc3)ccc2o1` | System = human plasma protein factor Xa (Homo sapiens) | pIC50 = ____
A) ≤ 6.30

Q) Form: Entry = COCCN(C)C(=N)c1ccc(NC(=O)C(NC(=S)Nc2ccc(Br)cc2)c2ccccc2)cc1 (centres unmarked) | System = human plasma protein factor Xa (Homo sapiens) | pIC50 = ____
A) ≥ 7.00

Q) Form: Entry = `Cc1cc2cc(NC(=S)NCC(=O)Nc3ccc(C4=NCCN4C)cc3)ccc2o1` | System = human plasma protein factor Xa (Homo sapiens) | pIC50 = ____
A) ≤ 6.30

Q) Form: Entry = NS(=O)(=O)c1ccccc1-c1ccc(NC(=O)C(NC(=S)Nc2ccc(Br)cc2)c2ccccc2)cc1 (centres unmarked) | System = human plasma protein factor Xa (Homo sapiens) | pIC50 = ____
A) ≥ 7.00

###

- assayed-target: human plasma protein factor Xa (Homo sapiens, UniProt P00742)
- Construct: measure proteolytic activity of the enzyme (factor Xa) by following cleavage of paranitroanilide substrate
- method-summary: Factor Xa IC50 determination (cleavage of paranitroanilide substrate S-2765)
- conditions-used: fXa 1 nM, S2765 100 μM, Tris buffered saline pH 7.4, room temperature
measured-quantity: IC50

>  <molecule>
CC(C)C(NC(=S)Nc1ccc(Cl)cc1)C(=O)Nc1ccc(C2=NCCN2C)cc1 (stereo not drawn) [Example 24]

>  <measured-quantity>
IC50

>  <data-value>
≤ 0.1 µM

$$$$
>  <molecule>
O=C(Nc1ccc(-n2ccccc2=O)cc1)[C@@H](NC(=S)Nc1ccc(Cl)cc1)c1ccccc1 [Example 34]

>  <measured-quantity>
IC50

>  <data-value>
≤ 0.1 µM

$$$$

Q) Could you tell me which IC50 is on file for N=C(c1ccc(NC(=O)[C@@H](NC(=S)Nc2ccc(Cl)cc2Cl)c2ccccc2)cc1)N1CCCC1 [Example 20] ?
A) ≥ 0.5 µM
